# ASSAY_METHOD_TEXT: Cmax in ICR mouse at 12.2 mg/kg, po
# Assay type: ADME, organism-based
# Design: dose 12.2 mg/kg, route oral
# PROTOCOL_CONDITIONS: in vivo
ASSAY_READOUT: Cmax (ng/mL)
Give the value, in units of ng/mL, as a plain number.

Request: Any idea what its Cmax is? The compound is CS(=O)(=O)c1nn(Cc2nc3cc(Cl)ccc3n2CC2COC2)c2cnccc12
Response: 972

----------
# ASSAY_METHOD_TEXT: Tmax in rat at 5 mg/kg, po
# Format: ADME, organism-based
# PROTOCOL_CONDITIONS: in vivo
ASSAY_READOUT: Tmax (h)
Just the number in h, nothing appended.

Request: Which Tmax value belongs to CS(=O)(=O)CCCn1c(Cn2cc(S(C)(=O)=O)c3ccccc32)nc2cc(Cl)ccc21 ?
Response: 4.67

----------
# ASSAY_METHOD_TEXT: Tmax in ICR mouse at […], po
# Format: ADME, organism-based
# PROTOCOL_CONDITIONS: in vivo
ASSAY_READOUT: Tmax (min)
Number in min, nothing else.

Request: Endpoint output: Tmax of CS(=O)(=O)c1nn(Cc2nc3cc(Cl)ccc3n2CCC(F)(F)F)c2cnccc12 . Value?
Response: 60

Request: For the compound shown here, CC(C)(O)CCn1c(Cn2nc(S(C)(=O)=O)c3ccncc32)nc2cc(Cl)ccc21 , give the reported Tmax.
Response: 15

----------
# ASSAY_METHOD_TEXT: Cmax in ICR mouse at 12.5 mg/kg, po
# Type: ADME, organism-based
# Design: dose 12.5 mg/kg, route oral
# PROTOCOL_CONDITIONS: in vivo
ASSAY_READOUT: Cmax (ng/mL)
Just the number please, in ng/mL, no unit attached.

Request: Item CS(=O)(=O)c1nn(Cc2nc3cc(Cl)ccc3n2CCCO)c2cnccc12 has what recorded Cmax?
Response: 155

----------
# ASSAY_METHOD_TEXT: Cmax in rat at 5 mg/kg, po
# Type: ADME, organism-based
# Parameters: dose 5 mg/kg, route oral
# PROTOCOL_CONDITIONS: in vivo
ASSAY_READOUT: Cmax

Request: Param item = CS(=O)(=O)CCCn1c(Cn2cc(S(C)(=O)=O)c3ccccc32)nc2cc(Cl)ccc21 ; retrieve measured Cmax.
Response: 4.05 ng/mL

----------
# ASSAY_METHOD_TEXT: Effective permeability of the compound by PAMPA
# Type: ADME
# PROTOCOL_CONDITIONS: read-out: Peff
Please provide measured Papp for the entries that follow.
Expressed in ×10⁻⁶ cm/s, but write only the number.

Request: If you can, please state the reported Papp value of CS(=O)(=O)c1nn(Cc2nc3cc(Cl)ccc3n2CCC(O)C(F)(F)F)c2cnccc12 (stereo not given) .
Response: 4.29

Request: Quick one: Papp for CS(=O)(=O)CCn1c(Cn2cc(S(C)(=O)=O)c3ccccc32)nc2ccccc21 ?
Response: 4.87

Request: Can you share its Papp? I mean this molecule: CS(=O)(=O)CCn1c(Cn2cc(S(C)(=O)=O)c3ccccc32)nc2cc(Cl)ccc21
Response: 2.3

Request: // returns reported Papp for input CS(=O)(=O)c1nn(Cc2nc3cc(Cl)ccc3n2CC2COC2)c2cnccc12
Response: 3.22
